Record form. Attribute: viability. Fill in for each entry.
# experiment: SK-BR-3 cell growth inhibitors, pilot screen, 24 h, human (AID 572);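 note: compound exposure lasted between 18 and 24 h rather than exactly 24 h; 100% = carrier-treated control wells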
# recorded.conditions: SK-BR-3 viability, CellTiter-Glo luminescence, at 10 µM, active compounds read low
Give bare numbers, in %.

INSERT INTO assay_data (structure, value_kind, result_value) VALUES
  ('COc1ccc(-n2nnnc2SCC(=O)c2ccc(O)c(O)c2)cc1', 'viability', 74),
  ('O=C(Nc1ccccc1Cl)c1c(F)c(F)c(F)c(F)c1F', 'viability', 106),
  ('COc1ccccc1N1CCN(C(=O)c2cc(-c3ccc(Cl)c(Cl)c3)on2)CC1', 'viability', 122);

// each molecule listed below needs its viability
1. O=C1OC(c2ccc(O)cc2)(c2ccc(O)cc2)c2ccccc21
2. OC(CCN1CCCCC1)(c1ccccc1)c1ccccc1
3. CCc1nnc(SCc2cn3c(C)cc(C)nc3n2)n1N
4. O=C(c1ncc[nH]1)c1ccccc1C(=O)N1CCOCC1
5. Cn1c(=O)c2c(nc(Br)n2CCSc2nnnn2-c2ccccc2)n(C)c1=O
6. COc1ccc(C(=O)Nc2nc(C)c(C(=O)N(C)C)s2)cc1OC
7. O=C(NC1CCCCCCC1)C1CCN(c2nc3ccccc3o2)CC1
8. Cc1cccc(N(C)C(=S)Oc2ccc3ccccc3c2)c1

## Result
[83, 95, 96, 118, 76, 70, 106, 89]

* * *

# experiment: reversal of MRP1-mediated doxorubicin resistance, pilot screen, H69AR cells, doxorubicin co-treatment (AID 601)
# recorded.conditions: H69AR cells + 2 uM doxorubicin, CellTiter-Glo, 72 h; at 10 µM; active compounds read high
Record form. Attribute: differential viability (reversal). Fill in for each entry.
One number for each entry, in %.

Field: example entries. Status: answers known.
INSERT INTO measurements (molecule, value_kind, units_text, result_value) VALUES
  ('CC(CCc1ccccc1)NC(=O)C1CCN(S(=O)(=O)c2cnc[nH]2)CC1 (stereo unspecified)', 'differential viability (reversal)', '%', 10.2),
  ('O=c1c2[nH]c3ccc(Cl)cc3c2ncn1Cc1ccccn1', 'differential viability (reversal)', '%', 13.4),
  ('CN(C(=O)Cn1c(=O)n(CCCCC(=O)NC2CCCC2)c(=O)c2ccccc21)C1CCCCC1', 'differential viability (reversal)', '%', 12.2),
  ('N#CCC(=O)N1CCn2c1nc1ccccc12', 'differential viability (reversal)', '%', -0.78),
  ('CCOCCCNC(=O)c1cc2sc(Cl)cc2n1CC', 'differential viability (reversal)', '%', -44);

## Task # input molecule: O=C(NC1CCCC1)C(NS(=O)(=O)c1cccc2nsnc12)c1ccccc1 (stereo unspecified) ; wanted: its differential viability (reversal)
## Result -2.47

* * *

# experiment: growth suppression of yeast trafficking mutant, preliminary HTS, modulators of trafficking downstream of Golgi apparatus project, 1536-format plate, OD 615 nm (AID 637)
# recorded.conditions: yeast transport mutant growth, absorbance 615 nm, 18 h; active compounds read high
Record form. Attribute: inhibition. Fill in for each entry.
Give bare numbers, in %.

Field: example entries. Status: answers known.
INSERT INTO measurements (molecule, value_kind, units_text, result_value) VALUES
  ('Cc1c(C(=O)NCc2ccccn2)oc2ccccc12', 'inhibition', '%', 17.9),
  ('COc1ccc(CC(=O)NCc2cccs2)cc1', 'inhibition', '%', -8.03),
  ('O=C1C(Cl)=C(NCC2CCCO2)C(=O)N1CCc1ccccc1 (centres undefined)', 'inhibition', '%', -4.03),
  ('O=C(NCc1ccco1)c1cccc(S(=O)(=O)N2CCCCC2)c1', 'inhibition', '%', 8.73),
  ('CCC(C)(C)n1nnnc1C(c1ccc(OC)c(OC)c1)N1CCN(c2ccccc2)CC1 (centres undefined)', 'inhibition', '%', -0.16),
  ('CC(=O)Nc1c(O)n(C)c2ccccc12', 'inhibition', '%', 4.55);

// each molecule listed below needs its inhibition
1. COc1ccc(CCN(C)CCCC(C#N)(c2ccc(OC)c(OC)c2)C(C)C)cc1OC (centres undefined)
2. c1ccc(-c2cc(N3CCCCC3)ncn2)cc1
3. CCCNC(=O)C1=C(C)C(=O)OC12CCC(C)CC2 (centres undefined)
4. Cc1cc(NS(=O)(=O)c2ccc(NC(=O)C(C)N3C(=O)c4ccccc4C3=O)cc2)nc(C)n1 (centres undefined)
5. CC(=O)Nc1ccc2nc(-c3cccnc3)[nH]c2c1
6. Oc1c(Cl)cc(Cl)c2c1NCCC2
7. CC(C)OC(=O)c1cc(NC(=O)C2C3CCC(O3)C2C(=O)O)cc(C(=O)OC(C)C)c1 (centres undefined)
8. CCOC(=O)CSc1nnc(-c2ccc(Cl)cc2Cl)o1

## Result
1: -0.5; 2: -0.32; 3: 3.61; 4: 5.25; 5: 11.1; 6: -2.7; 7: -1.09; 8: -0.16

// each molecule listed below needs its inhibition
1. COC(=O)C1C(=O)C2=C(CC1C)NC(=O)CC2c1ccccc1 (centres undefined)
2. CCOc1ccc(OCc2cccc(C(=O)N3CCOCC3)c2)cc1

## Result
[5.33, 2.7]

// each molecule listed below needs its inhibition
1. CC1=C(C(=O)OC(C)C)C(C2CC=CCC2)NC(=O)N1 (centres undefined)
2. Cc1ccccc1OCc1nc2ccccc2c(=O)n1/N=C/c1ccco1
3. CN1CCN(c2nc3c(c(=O)[nH]c(=O)n3C)n2CCOc2ccccc2)CC1
4. Cc1ccccc1OCC(O)CN (centres undefined)
5. Cc1cc(C(=O)COC(=O)c2n[nH]c3ccccc23)c(C)n1C

## Result
1: -10.7; 2: -2.9; 3: 2.62; 4: -6.03; 5: -4

Data provenance is PubChem BioAssay.
